EXPERIMENT DESCRIPTION: yeast display, Sf9 membrane polyspecificity reagent, FACS + sequencing; frameworks hold sequencing errors
TEST READOUT: polyreactivity (PSR sort gate)

Recorded results for 4 sequences are shown here.
>  <CHAIN SEQUENCE>
QVQLVESGGGLVQAGGSLRLSCAASGFIFRQYAMGWYRQAPGKEMELVAAISSSGGRTYYADSVKGRFTISRDNAKNTVYLQMNSLKPEDTAVSYCNARAWLRVEYGEGYWGQGTQVTVSS

>  <TEST READOUT>
polyreactivity (PSR sort gate)

>  <ENDPOINT VALUE>
high polyreactivity

$$$$
>  <CHAIN SEQUENCE>
QVQLVESGGGLVQAGGSLRLSCAASGIIFPTYAMGWYRQAPGKERELVAAITSGGSTYYADSVKGRFTISRDNAKNTVYLQMNSLKPEDTAVYYCAAAYLGYGAVQPSYEGGYWGQGTQVTVSS

>  <TEST READOUT>
polyreactivity (PSR sort gate)

>  <ENDPOINT VALUE>
low polyreactivity

$$$$
>  <CHAIN SEQUENCE>
QVHLVESGGGLVQAGGSLRLTCAASGRIFTSYVMGRSRQAPGQVRDLVAAITRSGGSTYYADSVKGRFTISRDNAKNTVYLQMNSLKPEDTAVYYCNALTRRQNGGEGGGYWGQGTHVTVSS

>  <TEST READOUT>
polyreactivity (PSR sort gate)

>  <ENDPOINT VALUE>
high polyreactivity

$$$$
>  <CHAIN SEQUENCE>
HVPLVESGGGLVQAGGSLRLSCAASGSTFSVNVLGWYRLAAGKERELVAAITQAGGSTYYADSVKGRFSISRDTAKNTVYLQMNSLKPEDTAGYYCAVEKWSVYSFFLEGADYWGQGTQLTVSS

>  <TEST READOUT>
polyreactivity (PSR sort gate)

>  <ENDPOINT VALUE>
low polyreactivity

$$$$

# input for lookup
Would you mind telling me what polyreactivity (PSR sort gate) value was observed for QVQLEESGGGLVQAGGSLRLTCAASGIIFRFYAMRCDRQAPGKERELVAVITSRSDSTYYADSVKGRFTISRDYAKNTVYLQMNSVKPEDTAVYYCNARYPWYYRYSTYDYWGQGTQVTVSS ?
high polyreactivity

----------
EXPERIMENT DESCRIPTION: yeast display, Sf9 membrane polyspecificity reagent, FACS + sequencing; frameworks hold sequencing errors
TEST READOUT: polyreactivity (PSR sort gate)

>  <CHAIN SEQUENCE>
QVQLVESGAGLVQAGGSLRLSCAASGRIFADYAMGWYRQAPGKERELVADIRQSGGRTYYADSVKGRFTISRDNAKNTVYLQMNSLKPEDTAVYYCATDYGSWGDYSGKYDYWGQGTQVTVSS

>  <TEST READOUT>
polyreactivity (PSR sort gate)

>  <ENDPOINT VALUE>
low polyreactivity

$$$$
>  <CHAIN SEQUENCE>
QVQLVESGGGLVQAGGSLRLSCAASGRIFIHYAMGWYRQAPGKERELVAAITFNGGSTYYADSVKGRFTISRDNAKNTVYLQMNSLKPEDTAVYYCAARLSKRSGYYYWGQGTQVTVSS

>  <TEST READOUT>
polyreactivity (PSR sort gate)

>  <ENDPOINT VALUE>
high polyreactivity

$$$$
>  <CHAIN SEQUENCE>
QVQLVESGGGLVQAGGSLRLSCAATGFTFYGYAMGWYRQAPGKERELVAAISRRSSSTYYADSVKGRFTISRDNAKNTVYLQMNSLKPEDTAVCYCNTVFQRSGYAAGVDYWGQGTQVTVSS

>  <TEST READOUT>
polyreactivity (PSR sort gate)

>  <ENDPOINT VALUE>
high polyreactivity

$$$$
>  <CHAIN SEQUENCE>
QVQHVESGGGLVQAGGSLRLSCAASGRTFNYYAMGWYRQAPGKERELVAAISSSGGRTYYADSVKGRFTISRDNAKNTVYLQMNSLKPEDTAVYYCAADSFYYRPEYDYWGQGTQVTVSS

>  <TEST READOUT>
polyreactivity (PSR sort gate)

>  <ENDPOINT VALUE>
low polyreactivity

$$$$

Here is the next item to consider.
Query (sequence): QVQLVESGGGLVQAGGSLRLRCAASGRIFREYAMGWYRQAPGKERELVAAITASGGGTYYADSVKGRFTISRDNAKNTVYLQMNSLKPEDTAVYYCAARYSSRTRNDYWGQGTQVTVSS ; field requested: polyreactivity (PSR sort gate)
low polyreactivity
